All figures here come from ChEMBL document CHEMBL1201862.

Record form. Attribute: GI50. Fill in for each entry.
Tested on: NCI-H23
Experiment: NCI tumour cell line growth inhibition, 48 h
Active and inactive are the calls of the source. No stated cut-off is given here; in the data, active = GI50 up to about 1.1 µM and inactive = higher.

Value sought: GI50, system NCI-H23, item `CC12CCC(CC1)C(C)(C)O2` . Result: 16.9 µM (inactive)

GET /values?item= `C=CCNC1=C2C[C@@H](C)C[C@@H](OC)[C@H](OC(=O)CCCCN)[C@H](C)/C=C(\C)[C@@H](OC(N)=O)[C@H](OC)/C=C\C=C(/C)C(=O)NC(=CC1=O)C2=O` &system= NCI-H23 returns GI50: 14.6 µM (inactive)

Record `C/C(=C/CNc1ncnc2c1ncn2CCC#N)CO` / NCI-H23, GI50 recorded as > 100 µM (inactive)

// molecule Cc1sc(C)c2c1C(=O)CC2N (stereo unspecified) , assay NCI-H23, GI50 value: 32.1 µM (inactive)

Entry `CNC(=S)NNC(=O)c1c(C)nc2sccn12` , NCI-H23 data, GI50 value: > 100 µM (inactive)

NCI-H23 GI50 of CCCCC1=C(C(=O)N2CCOCC2)C2(OCCO2)C1Cl (stereo unspecified) is 25.5 µM (inactive)

Lab note: molecule O=C1c2ccccc2N2OC3C4CCC(C4)C3C12c1ccccc1 (stereo unspecified) tested on NCI-H23; recorded GI50 was 94.6 µM (inactive)

// returns GI50 for `S=C(Nc1ccc(/N=N/c2ccccc2)cc1)SCc1ccccc1` with NCI-H23; value = 16.4 µM (inactive)

The recorded GI50 with NCI-H23 for `c1ccc(-c2nnc(-c3nn(-c4ccccc4)c4nc5ccccc5nc34)o2)cc1` was 41.2 µM (inactive)

Measured on NCI-H23, `Cc1cn(S(=O)(=O)c2ccccc2)c2c(OCc3ccccc3)cc(NS(C)(=O)=O)cc12` has a documented GI50 of 16 µM (inactive)

Item `Nc1cc(-c2ccccc2)nn1-c1nsc2ccccc12` was tested on NCI-H23; the reported GI50 is > 100 µM (inactive)
